measurementNotes: qHTS assay to identify small molecule agonists of H2AX - cell viability counter screen (AID 1224847); also: nearly all actives have a fitted effect of over 30% in size
setupConditions: CHO-K1 viability, CellTiter-Glo luminescence, 3 h; series mostly up to 154 µM
Inconclusive results are not listed. Activity calls are given as the source filed them. Calls follow the shape of the full dose curve.
Classes used: active, inactive

compound | labelValue
O=[N+]([O-])c1ccc(O)c2ncccc12 | inactive
[Cl][Dy]([Cl])[Cl] | inactive
CC(C)(C)c1ccc(OC2CCCCC2O)cc1 (centres undefined) | active
CC(C)(C)C1=CC(=O)C(C(C)(C)C)=CC1=O | inactive

----------
measurementNotes: Caspase-3/7 induction in HepG2 cells by small molecules, qHTS cell viability counter screen (AID 1346981); also: nearly all actives have a fitted effect of over 30% in size
setupConditions: CellTiter-Fluor fluorescence, 17 h; series mostly up to 92.4 µM
Records with an inconclusive call do not appear. Calls of active or inactive are those of the source. Calls come from the whole dose curve; as a rule, active = well fitted cell-killing curve with a large enough effect in the repeat runs; inconclusive = weak or mixed curves, or effect the other way; inactive = flat fitted curve, though single readings scatter.
Possible outcomes: yes for active, no for inactive

compound | labelValue
CCCCCCCCCCCCN1CCCC1=O | yes
CC1CCC(C(C)(C)O)CC1 (stereo not given) | no
O=[N+]([O-])c1ccc(CO)cc1 | no
COc1cc(/C=C/C(=O)CC(=O)/C=C/c2ccc(O)c(OC)c2)ccc1O | yes
CN1CCN(c2ccccc2/C=C2\SCCN(c3ccc(Cl)c(Cl)c3)C2=O)CC1 | yes
